# TARGET_OF_ASSAY: BCAT2 (Homo sapiens)
# EXPERIMENT_SUMMARY: BCAT2 in vitro enzyme inhibition assay (resazurin/diaphorase-coupled fluorescence)
# Format: biochemical
# CONDITION_LABEL: average where tested multiple times
IC50 values, listed per item

[N-]=[N+]=N[C@H]1[C@@H](NC(=O)c2ncc(Cl)s2)CCC[C@H]1n1c(-c2ccccc2F)nc2cnc(-c3nc[nH]n3)cc21 : > 1000 nM
O=C(N[C@H]1CCC[C@@H](n2c(-n3nccn3)nc3cnc(-n4nccn4)cc32)C1)c1ncc(C(F)F)s1 : 100 to 500 nM
O=C(N[C@H]1CCC[C@@H](n2c(-c3ccccc3F)nc3cnc(-c4ncccn4)cc32)[C@@H]1O)c1ncc(Cl)s1 : ≤ 100 nM

Req: Quick check: IC50 on BCAT2 (Homo sapiens), item CC(C)Oc1nc2cnc(-n3nccn3)cc2n1[C@@H]1CCC[C@H](NC(=O)c2ncc(C(F)F)s2)C1 ?
Resp: 100 to 500 nM

Req: Quick check: IC50 on BCAT2 (Homo sapiens), item O=C(N[C@H]1CCC[C@@H](n2c(CC3CC3)nc3cnc(-c4nc[nH]n4)cc32)C1)c1ncc(Cl)s1 ?
Resp: ≤ 100 nM

Req: Quick check: IC50 on BCAT2 (Homo sapiens), item O=C(NC1COCC(n2c(-c3ncccc3F)nc3cnc(-n4nccn4)cc32)C1)c1ncc(C(F)F)s1 (single isomer, unassigned) [Example 139] ?
Resp: > 1000 nM

Req: Quick check: IC50 on BCAT2 (Homo sapiens), item Cc1cnn(-c2cc3c(cn2)nc(CC(C)C)n3[C@H]2CCC[C@@H](NC(=O)c3ncc(Cl)s3)[C@@H]2O)n1 ?
Resp: > 1000 nM

Req: Quick check: IC50 on BCAT2 (Homo sapiens), item O=C(N[C@H]1CCC[C@@H](n2c(-c3ccccc3F)nc3cnc(C4CCCO4)cc32)C1)c1ncc(Cl)s1 (single isomer, unassigned) [Example 200] ?
Resp: 500 to 1000 nM

Req: Quick check: IC50 on BCAT2 (Homo sapiens), item O=C(N[C@@H]1C[C@H](n2c(-c3ccccc3F)nc3cnc(-c4nc[nH]n4)cc32)CS(=O)(=O)C1)c1ccc(Cl)s1 ?
Resp: ≤ 100 nM

Req: Quick check: IC50 on BCAT2 (Homo sapiens), item CO[C@H]1C[C@H](NC(=O)c2ccc(Cl)s2)C[C@H](n2c(CC(C)C)nc3cnc(-c4ncccn4)cc32)C1 (single isomer, unassigned) ?
Resp: ≤ 100 nM

====

pIC50 values, listed per item
# TARGET_OF_ASSAY: BCAT2 (Homo sapiens, UniProt O15382)
# Sequence (O15382 28-392): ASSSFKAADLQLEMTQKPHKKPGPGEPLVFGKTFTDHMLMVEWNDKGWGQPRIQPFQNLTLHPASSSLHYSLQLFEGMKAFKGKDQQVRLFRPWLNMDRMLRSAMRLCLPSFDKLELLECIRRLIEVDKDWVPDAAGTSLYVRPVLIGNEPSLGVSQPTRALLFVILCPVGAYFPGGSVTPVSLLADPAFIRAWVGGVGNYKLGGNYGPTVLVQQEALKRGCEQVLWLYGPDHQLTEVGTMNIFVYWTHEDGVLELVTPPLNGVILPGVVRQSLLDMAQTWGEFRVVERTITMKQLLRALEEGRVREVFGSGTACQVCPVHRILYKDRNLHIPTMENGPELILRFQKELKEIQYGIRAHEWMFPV
# EXPERIMENT_SUMMARY: BCAT2 in vitro cell inhibition using engineered A549 cells (KMV cell assay, 13C6-KMV by LC-MS/MS)
# Format: cell-based
# Set-up: The result was an engineered A549 cell line that expressed endogenous BCAT2; endogenous in cells; host or cells: A549 cells with MUT and BCAT1 knocked out by CRISPR/CAS9
# CONDITION_LABEL: average where tested multiple times
pIC50: −log10 of the molar value.

The following compounds have reported results that may help.
O=C(N[C@H]1CCC[C@@H](n2c(-c3ncccc3F)nc3cnc(-n4ccnn4)cc32)C1)c1ncc(C(F)F)s1 [Example 37] : < 6.00
CNc1cc2c(cn1)nc(-c1ccccc1F)n2[C@@H]1C[C@@H](O)C[C@H](NC(=O)c2ncc(Cl)s2)C1 [Example 274] : 6.00 to 6.30
O=C(N[C@H]1CCC[C@@H](n2c(COC(F)(F)F)nc3cnc(-c4nc[nH]n4)cc32)C1)c1ncc(Cl)s1 [Example 313] : ≥ 7.00

Req: Query (compound): Cc1cnn(-c2cc3c(cn2)nc(-c2ccccc2F)n3[C@@H]2CCC[C@H](NC(=O)c3ncc(Cl)s3)[C@H]2O)n1 [Example 246] ; field requested: pIC50
Resp: ≥ 7.00

Req: Query (compound): O=C(N[C@@H]1C[C@@H](O)C[C@H](n2c(-c3ccccc3F)nc3cnc(-n4nccn4)cc32)C1)c1ncc(C(F)F)s1 (single isomer, unassigned) [Example 107] ; field requested: pIC50
Resp: 6.00 to 6.30

Req: Query (compound): Nc1cc2c(cn1)nc(-c1ccccc1F)n2[C@H]1C[C@H](O)C[C@@H](NC(=O)c2ncc(Cl)s2)C1 [Example 269] ; field requested: pIC50
Resp: < 6.00

Req: Query (compound): COc1ccc(F)c(-c2nc3cnc(-c4nc[nH]n4)cc3n2[C@@H]2CCC[C@H](NC(=O)c3ccc(Cl)s3)C2)c1 [Example 343] ; field requested: pIC50
Resp: 6.30 to 7.00

Req: Query (compound): CCn1c(CO)nn(-c2cc3c(cn2)nc(CC(C)C)n3[C@@H]2CCC[C@H](NC(=O)c3ccc(Cl)s3)C2)c1=O [Example 373] ; field requested: pIC50
Resp: < 6.00

Req: Query (compound): CC(C)Cc1nc2cnc(-c3nc[nH]n3)cc2n1[C@@H]1CCC[C@H](NC(=O)c2ncc(Cl)s2)[C@H]1O [Example 250] ; field requested: pIC50
Resp: ≥ 7.00

Req: Query (compound): CC1(Cc2nc3cnc(-c4nc[nH]n4)cc3n2[C@@H]2CCC[C@H](NC(=O)c3ncc(Cl)s3)C2)CC1 [Example 379] ; field requested: pIC50
Resp: ≥ 7.00
